Numbers sourced from patent US20240327534A1.

Would you kindly list Kd for each of these binders?
- targetOrTestSystem: T1, human BCMA protein (human, UniProt Q02223 1-54, limits assumed)
- T1 sequence: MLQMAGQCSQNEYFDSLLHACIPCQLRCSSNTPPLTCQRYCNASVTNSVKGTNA
- assayProcedure: affinity to human BCMA protein, method not stated
Answer with a number only, understood to be in nM.

Which measured Kd value corresponds to BCMA targeting trispecific protein 01G11 (other, not shown: large carriers; small tags and cut ends, trispecific) VHH: EVQLVESGGGLVQPGRSLTLSCAASTNIPSISPMGWYRQAPGKQRELVAAIHGASTLYADSVKGRFTISRDNAKNSIYLQMNSLRPEDTALYYCNKVPWGDYHPRNVAWGQGTQVTVSS ? 9.7

Which measured Kd value corresponds to BCMA targeting trispecific protein 01A05 (other, trispecific; not shown: anti-albumin domain, anti-CD3 domain and the linkers of the trispecific (TriTAC) format) VHH: EVQLVESGGGLVQPGRSLTLSCAASTNIFSSSPMGWYRQAPGKQRELVAAIHGFSTLYADSVKGRFTISRDNAKNSIYLQMNSLRPEDTALYYCNKVPWGDYHPRNVYWGQGTQVTVSS ? 17

Which measured Kd value corresponds to BCMA targeting trispecific protein 01E07 (other, trispecific; not shown: anti-albumin domain, anti-CD3 domain and the linkers of the trispecific (TriTAC) chain; the C-terminal 6xHis tag follows these missing domains and is left out) VHH: EVQLVESGGGLVQPGRSLTLSCAASTNIPSISPMGWYRQAPGKQRELVAAIHGQSTLYADSVKGRFTISRDNAKNSIYLQMNSLRPEDTALYYCNKVPWGDYHPRNVQWGQGTQVTVSS ? 19.9

Which measured Kd value corresponds to BCMA targeting trispecific protein 02F07 (other, trispecific; not shown: the C-terminal His6 follows those missing domains and is left out) VHH: EVQLVESGGGLVQPGRSLTLSCAASTNIESISPMGWYRQAPGKQRELVAAIHGFSTLYADSVKGRFTISRDNAKNSIYLQMNSLRPEDTALYYCNKVPWGDYHPGNVYWGQGTQVTVSS ? 7.06
